Origin of the recorded values: patent US10336762B2

# Test system: TNFα
# test: cells
# Format: cell-based, human
# run parameters: Homo sapiens, Monocyte, LPS-stimulated human monocytes, TNFα content; read-out: EC50 TNF
pEC50: −log10 of the molar value.
Label class 1 when pEC50 is at or above 7; otherwise label class 0.

{"columns": ["molecule", "label"],
 "data": [
  ["CC(C)Nc1cc(-c2ccc3cc(C#N)cnn23)ncc1C(=O)NS(C)(=O)=O [Example 34]", "class 0"],
  ["CNC(=O)c1cnc(-c2ccc3cc(C#N)cnn23)cc1N[C@@H]1CC[C@@H](C(=O)NC)C1 [Example 466]", "class 0"],
  ["CC(C)(O)[C@H](F)CNC(=O)c1cnc(-c2ccc3cc(C#N)cnn23)cc1Nc1ccc(-c2nnco2)cc1 [Example 627]", "class 1"],
  ["CC(C)(O)[C@H](F)CNC(=O)c1cnc(-c2ccc3cc(C#N)cnn23)cc1NCC1CCC1 [Example 703]", "class 1"],
  ["CC(C)Nc1cc(-c2ccc3cc(C#N)cnn23)ncc1C(=O)NCC(F)(F)CNC(=O)OC(C)(C)C [Example 554]", "class 0"]
]}

----------
# system: IRAK4 enzyme (Homo sapiens (Human), UniProt Q9NWZ3)
# Sequence (Q9NWZ3 whole entry): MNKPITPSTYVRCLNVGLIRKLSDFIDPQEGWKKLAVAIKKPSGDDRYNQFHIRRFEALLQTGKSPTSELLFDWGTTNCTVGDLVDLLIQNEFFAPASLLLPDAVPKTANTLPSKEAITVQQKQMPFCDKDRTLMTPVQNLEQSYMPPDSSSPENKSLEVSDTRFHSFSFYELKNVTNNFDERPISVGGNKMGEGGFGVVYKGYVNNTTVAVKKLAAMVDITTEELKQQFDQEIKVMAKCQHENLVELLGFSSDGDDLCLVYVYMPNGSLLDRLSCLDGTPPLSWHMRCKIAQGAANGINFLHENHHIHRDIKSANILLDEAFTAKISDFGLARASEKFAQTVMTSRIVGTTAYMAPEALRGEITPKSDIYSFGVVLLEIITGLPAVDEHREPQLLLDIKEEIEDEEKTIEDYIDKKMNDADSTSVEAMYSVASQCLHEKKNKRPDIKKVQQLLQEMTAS
# test: biochemical
# Assay type: biochemical
# run parameters: IRAK4 enzyme, TR-FRET, 500 μM ATP
pIC50: −log10 of the molar value.

{"columns": ["compound", "lt gt eq", "pIC50"],
 "data": [
  ["CC(C)(O)[C@H](F)CNC(=O)c1cnc(-c2ccc3cc(C#N)cnn23)cc1NC1CCN(S(C)(=O)=O)CC1", ">", 9.00],
  ["COC(=O)NC[C@H]1C[C@H](Nc2cc(-c3ccc4cc(C#N)cnn34)ncc2C(=O)NCCC(C)(C)NC(=O)OC(C)(C)C)C1", ">", 9.00],
  ["CC(C)(O)[C@H](F)CNC(=O)c1cnc(-c2ccc3cc(C#N)cnn23)cc1N[C@@H]1CC[C@@H](N)C1", ">", 9.00],
  ["CC(C)(O)[C@H](F)CNC(=O)c1cnc(-c2ccc3cc(C#N)cnn23)cc1Nc1cnn([C@@H]2CCOC2)c1", ">", 9.00],
  ["CC(C)(O)[C@H](F)CNC(=O)c1cnc(-c2ccc3cc(C#N)cnn23)cc1NCc1ccccn1", "=", 8.22],
  ["CCC(=O)c1cccc(Nc2cc(-c3ccc4cc(C#N)cnn34)ncc2C(=O)NC[C@@H](F)C(C)(C)O)c1", "=", 9.00],
  ["CC(C)(O)[C@H](F)CNC(=O)c1cnc(-c2ccc3cc(C#N)cnn23)cc1NC1CC2CCC(C1)N2S(C)(=O)=O (stereo partly drawn) [Example 29]", ">", 9.00],
  ["CC(=O)NC(C)(C)c1ccc(Nc2cc(-c3ccc4cc(C#N)cnn34)ncc2C(=O)NC[C@@H](F)C(C)(C)O)cc1", "=", 8.70],
  ["CC1(C)CC(Nc2cc(-c3ccc4cc(C#N)cnn34)ncc2C(=O)NC[C@@H](F)C(C)(C)O)CCO1 (stereo partly drawn)", "=", 9.00]
]}

----------
# Tested on: TNFα
# test: cells
# Format: cell-based, human
# run parameters: Homo sapiens, Monocyte, LPS-stimulated human monocytes, TNFα content; read-out: EC50 TNF
Cut-off 90 nM on EC50: below means T, at or above means F.

{"columns": ["smiles text", "label"],
 "data": [
  ["Cc1ccc(-c2cc(Nc3cc(-c4ccc5cc(C#N)cnn45)ncc3C(=O)NC[C@@H](F)C(C)(C)O)n(-c3ccccc3)n2)cc1", "F"],
  ["CC(C)(O)[C@H](F)CNC(=O)c1cnc(-c2ccc3cc(C#N)cnn23)cc1N[C@H]1CC[C@@H](OC(=O)NC2CC2)CC1", "F"],
  ["CNC(=O)[C@H]1CC[C@@H](Nc2cc(-c3ccc4cc(C#N)cnn34)ncc2C(=O)NC[C@@H](F)C(C)(C)O)CC1", "F"],
  ["CC(C)(O)[C@H](F)CNC(=O)c1cnc(-c2ccc3cc(C#N)cnn23)cc1N[C@H]1C[C@H](CNC(=O)OCC(F)(F)F)C1", "T"],
  ["CC(C)Nc1cc(-c2ccc3cc(C#N)cnn23)ncc1C(=O)N[C@H]1CCC[C@@H](O)C1", "F"],
  ["CC(C)(O)[C@H](F)CNC(=O)c1cnc(-c2ccc3cc(C#N)cnn23)cc1Nc1ccc(-c2ccon2)nc1", "T"],
  ["N#Cc1cnn2c(-c3cc(N[C@H]4CC[C@H](N5CCOC5=O)CC4)c(C(=O)NCC(N)=O)cn3)ccc2c1", "F"]
]}
